# System name: Voltage-gated L-type calcium channel (Rattus norvegicus, UniProt P22002+Q02485+P27732)
# Assay notes: Inhibition of L-VDCC in rat H9C2 cells assessed as effect on calcium level by Fluo-4 fluorescence assay
# Format: cell-based
Measured endpoint: inhibition (INH)

Example entries begin here.
> print(dat)
                                   compound   obs.value
1  CCOC(=O)C1=C(C)NC(C)=C(C(=O)OCc2ccccc2)C1c1sccc1C (configuration not stated)      Active
2  C=CCOC(=O)C1=C(C)NC(C)=C(C(=O)OCC)C1c1sccc1C (configuration not stated)      Active
3  C=CCOC(=O)C1=C(C)NC(C)=C(C(=O)OCC)C1c1sccc1SCC(=O)OC (configuration not stated)      Active
4  COC(=O)C1=C(C)NC(C)=C(C(=O)OC)C1c1ccc(C)s1  Not Active
5  COC(=O)C1=C(C)NC(C)=C(C(=O)OC)C1c1ccc(C)o1  Not Active
6  CCOC(=O)C1=C(C)NC(C)=C(C(=O)OCc2ccccc2)C1c1sccc1SCC(=O)OC (configuration not stated)      Active

Read the next record carefully.
Value lookup for inhibition (INH); key = "COC(=O)C1=C(C)NC(C)=C(C(=O)OC)C1c1cccs1"
Not Active
